Target Or System: T1, FZD4 CRD (Homo sapiens, UniProt Q9ULV1)
T1 construct: E42-V167; GPI anchor signal (C); expressed in transfected cells; host or cells: CHO cells, lentiviral pLenti-puro
T1 sequence (Q9ULV1 42-167): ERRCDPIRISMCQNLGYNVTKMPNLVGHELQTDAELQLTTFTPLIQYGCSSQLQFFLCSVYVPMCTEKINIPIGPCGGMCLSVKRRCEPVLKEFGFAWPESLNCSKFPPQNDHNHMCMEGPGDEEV
Method Summary: Flow cytometry of anti-FZD5 Fab binding to CHO cells overexpressing Frizzled CRD
Median fluorescence, Frizzled CRD overexpressed on CHO cells: FZD4 listing for selected molecules.
// no unit string in output, number only

molecule="Fab-2906: anti-FZD5 Fab with antibody variable region Fv-2906; CDR SEQ ID NOs: 35, 36, 45, 84, 121, 158 (antibody, V domains shown) VH: EVQLVESGGGLVQPGGSLRLSCAASGFNFSSSSIHWVRQAPGKGLEWVAYISSSYGYTYYADSVKGRFTISADTSKNTAYLQMNSLRAEDTAVYYCARTVRGSKKPYFSGWAMDYWGQGTLVTVSS VL: DIQMTQSPSSLSASVGDRVTITCRASQSVSSAVAWYQQKPGKAPKLLIYSASSLYSGVPSRFSGSRSGTDFTLTISSLQPEDFATYYCQQWSWGFLITFGQGTKVEIK" obs_value=12.3
molecule="Fab-2930: anti-FZD5 Fab with antibody variable region Fv-2930; CDR SEQ ID NOs: 35, 36, 69, 107, 145, 153 (antibody, V domains shown) VH: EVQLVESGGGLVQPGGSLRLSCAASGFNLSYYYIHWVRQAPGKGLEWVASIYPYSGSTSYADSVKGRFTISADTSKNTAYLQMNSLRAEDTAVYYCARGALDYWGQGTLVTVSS VL: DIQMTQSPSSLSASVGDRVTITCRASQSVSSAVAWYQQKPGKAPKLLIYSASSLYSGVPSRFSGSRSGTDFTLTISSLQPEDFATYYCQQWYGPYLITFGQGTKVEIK" obs_value=9.31
molecule="Fab-2935: anti-FZD5 Fab with antibody variable region Fv-2935; CDR SEQ ID NOs: 35, 36, 74, 111, 150, 178 (antibody, V domains shown) VH: EVQLVESGGGLVQPGGSLRLSCAASGFNIYYYYIHWVRQAPGKGLEWVASIYPSSGSTSYADSVKGRFTISADTSKNTAYLQMNSLRAEDTAVYYCARAAFDYWGQGTLVTVSS VL: DIQMTQSPSSLSASVGDRVTITCRASQSVSSAVAWYQQKPGKAPKLLIYSASSLYSGVPSRFSGSRSGTDFTLTISSLQPEDFATYYCQQWYGGYALITFGQGTKVEIK" obs_value=7.3
molecule="Fab-2923: anti-FZD5 Fab with antibody variable region Fv-2923; CDR SEQ ID NOs: 35, 36, 62, 100, 138, 162 (antibody, V domains shown) VH: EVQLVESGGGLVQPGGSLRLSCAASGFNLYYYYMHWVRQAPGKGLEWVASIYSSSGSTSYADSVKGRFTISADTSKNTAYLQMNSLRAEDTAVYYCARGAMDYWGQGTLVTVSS VL: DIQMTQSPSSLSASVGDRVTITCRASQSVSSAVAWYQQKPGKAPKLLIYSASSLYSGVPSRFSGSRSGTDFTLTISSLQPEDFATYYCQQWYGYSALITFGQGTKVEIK" obs_value=10.55

Requested read-out: Median fluorescence, Frizzled CRD overexpressed on CHO cells: FZD4. Entry: Fab-2922: anti-FZD5 Fab with antibody variable region Fv-2922; CDR SEQ ID NOs: 35, 36, 61, 99, 137, 171 (antibody, V domains shown) VH: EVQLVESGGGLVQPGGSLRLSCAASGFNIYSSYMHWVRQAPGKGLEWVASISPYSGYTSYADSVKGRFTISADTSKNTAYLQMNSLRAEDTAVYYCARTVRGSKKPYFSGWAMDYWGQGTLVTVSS VL: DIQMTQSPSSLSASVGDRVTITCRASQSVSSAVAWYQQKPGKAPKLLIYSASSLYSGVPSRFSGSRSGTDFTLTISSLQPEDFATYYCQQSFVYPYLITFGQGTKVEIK
12.75
